Reported agonist activity (%) values for the following compounds.
# TARGET OF ASSAY: Human orexin receptor type 2 (Homo sapiens, UniProt O43614)
# Construct: expressed in transfected cells; host or cells: CHO cells (transient expression)
# Sequence (O43614 whole entry): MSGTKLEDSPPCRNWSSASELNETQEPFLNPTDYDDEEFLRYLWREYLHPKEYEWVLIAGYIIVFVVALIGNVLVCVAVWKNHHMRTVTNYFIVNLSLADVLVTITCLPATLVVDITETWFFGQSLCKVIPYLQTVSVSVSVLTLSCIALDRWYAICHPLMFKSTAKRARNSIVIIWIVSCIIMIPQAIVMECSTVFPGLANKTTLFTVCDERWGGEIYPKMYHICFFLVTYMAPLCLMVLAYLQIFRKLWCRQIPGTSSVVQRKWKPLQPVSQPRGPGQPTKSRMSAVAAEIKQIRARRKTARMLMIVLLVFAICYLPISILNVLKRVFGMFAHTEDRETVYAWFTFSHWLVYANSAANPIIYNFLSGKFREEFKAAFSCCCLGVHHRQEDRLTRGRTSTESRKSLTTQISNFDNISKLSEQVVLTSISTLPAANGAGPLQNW
# ASSAY OVERVIEW: Test 2: Evaluation of agonist activity for orexin receptor type 2 (aequorin luminescence, intracellular calcium mobilization in CHO cells)
# Type: cell-based
# CONDITION PARAMETERS: relative percentage of luminescence for the luminescence (100%) of Orexin A (100 pM); CHO cells transiently expressing human orexin receptor type 2 and apoaequorin; Orexin A Lot. 671009
READOUT KIND: agonist activity (%)

| SMILES CODE | RESULT UNITS | OBSERVED |
| --- | --- | --- |
| CC(C)N1C[C@@H]2[C@H](C1)[C@H]2O[C@H]1CCCC(F)(F)[C@@H]1NC(=O)N1CCC(C)(c2noc([C@@H]3C[C@@H]3F)n2)CC1 | % | 220 |
| CC(C)N1CC[C@H](N(Cc2ccccc2)[C@H]2CCCC(F)(F)[C@@H]2NC(=O)N2CCC(C)(c3noc([C@@H]4C[C@@H]4F)n3)CC2)C1 | % | 243 |
| CC1(c2noc(C3CC3)n2)CCN(C(=O)N[C@@H]2[C@@H](O[C@H]3CCN(CC4CC4)C3)CCCC2(F)F)CC1 | % | 369 |
| CC1(CN2CC[C@H](O[C@H]3CCCC(F)(F)[C@@H]3NC(=O)N3CCC(C)(c4noc([C@@H]5C[C@@H]5F)n4)CC3)C2)CC1 | % | 379 |
| CC(C)N1CCN([C@H]2CCCC(F)(F)[C@@H]2N(C)C(=O)N2CCC(C)(c3noc([C@@H]4C[C@@H]4F)n3)CC2)CC1 | % | 23 |
| CC(C)N1CCN([C@H]2CCCC(C)(C)[C@@H]2NC(=O)N2CCC(C)(c3noc(C4CC4)n3)CC2)CC1 | % | 373 |

###

# TARGET OF ASSAY: Human orexin receptor type 2 (Homo sapiens, UniProt O43614)
# Construct: expressed in transfected cells; host or cells: CHO cells (transient expression)
# ASSAY OVERVIEW: Test 1: Evaluation of agonist activity for orexin receptor type 2 (aequorin luminescence, intracellular calcium mobilization in CHO cells)
# Type: cell-based
# CONDITION PARAMETERS: relative percentage of luminescence for the luminescence (100%) of Orexin A (100 pM); CHO cells transiently expressing human orexin receptor type 2 and apoaequorin; Orexin A Lot. 641114

| COMPOUND | RESULT UNITS | agonist activity (%) |
| --- | --- | --- |
| CC(C)N1CC=C(C2=CCCCC2NC(=O)N2CCC(C)(c3noc(C4CC4)n3)CC2)CC1 (racemic) | % | 73 |
| Cc1ccc(C2CCN(C(=O)NC3C(CN4CCN(C(C)C)CC4)[C@@H]4CC[C@H]3C4)CC2)cc1 (mixture of isomers) | % | 57 |
| CC(C)N1CCN([C@H]2CCCC(F)(F)[C@@H]2NC(=O)N2CCC(C)(c3cc(C4CC4)on3)CC2)CC1 (racemic) [Example 20] | % | 160 |
| CC(C)N1CC[C@H](O[C@H]2CCCC(F)(F)[C@@H]2NC(=O)N2CCC(C)(c3noc(C4CC4)n3)CC2)C1 | % | 199 |
| CC(C)N1CCN([C@H]2CCCC(F)(F)[C@@H]2NC(=O)N2CCC(c3ncccn3)CC2)CC1 (racemic) | % | 114 |
| Cc1ccc(C2(C)CCN(C(=O)N[C@@H]3[C@@H](N4C5CCC4CN(C(C)C)C5)CCCC3(F)F)CC2)cc1 | % | 149 |
| CC(C)N1CCN([C@H]2CCCC(F)(F)[C@@H]2OC(=O)N2CCC(C)(c3noc(C4CC4)n3)CC2)CC1 (racemic) [Example 9] | % | 207 |
| CC(C)N1CCN([C@H]2CCCC(F)(F)[C@@H]2NC(=O)N2CCC(C)(c3noc(C4CC4)n3)CC2)CC1 [Example 24] | % | 210 |
| CC(C)N1CCN([C@H]2CCCC(F)(F)[C@@H]2NC(=O)N2CCC(C)(c3nsc(OC4CC4)n3)CC2)CC1 | % | 155 |

###

Reported agonist activity (%) values for the following compounds.
# TARGET OF ASSAY: Human orexin receptor type 2 (Homo sapiens, UniProt O43614)
# Construct: expressed in transfected cells; host or cells: CHO cells (transient expression)
# ASSAY OVERVIEW: Test 1: Evaluation of agonist activity for orexin receptor type 2 (aequorin luminescence, intracellular calcium mobilization in CHO cells)
# Assay type: cell-based
# CONDITION PARAMETERS: relative percentage of luminescence for the luminescence (100%) of Orexin A (100 pM); CHO cells transiently expressing human orexin receptor type 2 and apoaequorin; Orexin A Lot. 641114

| COMPOUND | agonist activity (%) |
| --- | --- |
| Cc1ccc(C2(C)CCN(C(=O)N[C@@H]3[C@@H](N4CCN(C(C)C)CC4)CCCC3(F)F)CC2)cc1 (racemic) [Example 58] | 150 |
| CCc1nc(C2(C)CCN(C(=O)N[C@@H]3[C@@H](N4CCN(C(C)C)CC4)CCCC3(F)F)CC2)no1 (racemic) [Example 28] | 190 |
| CC(C)N1CCN([C@H]2CCCC(F)(F)[C@@H]2NC(=O)N2CCC(C)(c3nsc(C4CC4)n3)CC2)CC1 [Example 43] | 146 |
| CC(C)N1CCN([C@H]2CCCC(F)(F)[C@@H]2NC(=O)N2CCC(C)(c3nc4ccccc4o3)CC2)CC1 (racemic) [Example 21] | 153 |
| CC(C)N1C[C@@H](O[C@H]2CCCC(F)(F)[C@@H]2NC(=O)N2CCC(C)(c3noc(C4CC4)n3)CC2)C(F)(F)C1 [Example 76] | 145 |
| CC(C)N1CCN([C@H]2CCCC(F)(F)[C@@H]2NC(=O)N2CCC(C)(c3ncc(C4CC4)s3)CC2)CC1 (racemic) [Example 48] | 156 |
| Cc1ccc(C2CCN(C(=O)N[C@@H]3[C@@H](N4CCN(C(C)C)CC4)CCCC3(F)F)CC2)cc1 (racemic) [Example 8] | 207 |
| CC(C)N1CCN([C@H]2CCCC(F)(F)[C@@H]2NC(=O)N2CCC(C)(c3noc([C@@H]4C[C@@H]4F)n3)CC2)CC1 [Example 66] | 144 |
| CC(C)N1CCN([C@H]2CCCC(F)(F)[C@@H]2NC(=O)N2CCC(C)(c3noc(CC(F)(F)F)n3)CC2)CC1 [Example 70] | 141 |
| CC(C)N1CCN([C@H]2CCCC(F)(F)[C@@H]2NC(=O)N2CCC(C)(c3noc([C@H]4C[C@H]4C)n3)CC2)CC1 [Example 68] | 156 |
| CC(C)N1CCN([C@H]2CCCC(F)(F)[C@@H]2NC(=O)N2CCC(C)(c3ccc(C(F)F)cc3)CC2)CC1 (racemic) [Example 59] | 164 |
| CC(C)N1CC2CCC(C1)N2[C@H]1CCCC(F)(F)[C@@H]1NC(=O)N1CCC(C)(c2noc(C3CC3)n2)CC1 [Example 62] | 174 |
| CC(C)N1CC[C@@H](O[C@H]2CCCC(F)(F)[C@@H]2NC(=O)N2CCC(C)(c3noc(C4CC4)n3)CC2)C1 [Example 64] | 204 |
| Cc1ccc(C2CCN(C(=O)N[C@@H]3[C@@H](N4CCN(C(C)C)CC4)CCCC3(F)F)CC2)nc1 (racemic) [Example 50] | 154 |

###

# TARGET OF ASSAY: Human orexin receptor type 2 (Homo sapiens)
# Construct: expressed in transfected cells; host or cells: CHO cells (transient expression)
# ASSAY OVERVIEW: Test 1: Evaluation of agonist activity for orexin receptor type 2 (aequorin luminescence, intracellular calcium mobilization in CHO cells)
# Type: cell-based
# CONDITION PARAMETERS: relative percentage of luminescence for the luminescence (100%) of Orexin A (100 pM); CHO cells transiently expressing human orexin receptor type 2 and apoaequorin; Orexin A Lot. 641114
Reported agonist activity (%) values for the following compounds.

| COMPOUND | agonist activity (%) |
| --- | --- |
| CC(C)N1CCN([C@H]2CCCC(F)(F)[C@@H]2NC(=O)N2CCC(C)(C3CCC(F)(F)CC3)CC2)CC1 (racemic) [Example 30] | 128 |
| CC(C)N1CCN([C@H]2CCCC(F)(F)[C@@H]2NC(=O)N2CCC3(CCCC3)CC2)CC1 (racemic) [Example 33] | 123 |
| Cc1cnc(C2CCN(C(=O)N[C@@H]3[C@@H](N4CCN(C(C)C)CC4)CCCC3(F)F)CC2)c(F)c1 (racemic) [Example 51] | 149 |
| CC(C)N1CCN([C@H]2CCCC(F)(F)[C@@H]2NC(=O)N2CCC(O)(c3ccc(Cl)cc3)CC2)CC1 (racemic) [Example 41] | 23 |
| CC(C)N1CC[C@@H](O[C@H]2CCCC(F)(F)[C@@H]2NC(=O)N2CCC(C)(c3noc([C@@H]4C[C@@H]4F)n3)CC2)C1 [Example 73] | 185 |
| CC(C)N1CCN([C@H]2CCCC(F)(F)[C@@H]2NC(=O)N2CCC(O)(c3ccccn3)CC2)CC1 (racemic) [Example 37] | 45 |
